System: MS2 coat protein
Assay: apparent KD of MS2 coat protein; designed switch direction (-1 OFF switch, 1 ON switch): -1; higher = weaker reporter binding
Conditions: Eterna round: R95; input ligand: FMN 200 uM
Endpoint label: apparent KD of MS2 coat protein

Return apparent KD of MS2 coat protein for the following sequence: AAAUAAGAAGGAUAUACAAAUUAAAAGGUCCUUAAGGCAAGACAUGAGGAUCACCCAUGUAGAAGGUCUGAAAA [Teati] (puzzle: Exclusion 2)
39.5 nM

Hi there! I need apparent KD of MS2 coat protein for each item below, if you can.
1. AAGAGGUCAGGAUAUACGGGAAGAGAGAGAAGUAGAGGGUAACAUGAGGAUCACCCAUGUAGAAGGGACUAAGA [JR_Exclu2_Sub072] (puzzle: Exclusion 2)
2. UAUUAACAAGCUAGAUCCUACAUGAGGAUCACCCAUGUGCUCGUCUUAUAAGGUACUGUGACGAAAGUCACGGUACC [Sensor 3, v1 - 76] (puzzle: Sensor v3, turn-off variant 1)
3. CAUACUGAAGUUAGGAUAUUCGAACGUAUACGGAUGGAGAAGGGACAUGAGGAUCACCCAUGUAGAUAGUAAAG [EX-4 Malc #11] (puzzle: Brourd's mod of Exclusion 4)
4. AAAAUGGUCUAGGAUAUGACAAAUCUGAGCACGUCAGAAGGAGACACAUGAGGAUCACCCAUGUGGGUGCGAAA [Erteedza] (puzzle: Exclusion 6)

["34.5 nM", "265 nM", "23.1 nM", "324 nM"]

----------
Consider the following sequences; for each one, report its apparent KD of MS2 coat protein.
Test system: MS2 coat protein
Assay: apparent KD of MS2 coat protein; designed switch direction (-1 OFF switch, 1 ON switch): -1; higher = weaker reporter binding
Settings: input ligand: none

For orientation, consider the following solved cases.
Report value only: apparent KD of MS2 coat protein, MS2 coat protein, AUUGUUUGAUACCUCUAAUACAUGAGGAUCACCCAUGUUAUCGAGGAUAUGCAGUAGAGUGGAGAGCAGAAGGCGAAGUAAGUG [JR_ExcNG3_Sub028] (Eterna round: R96, puzzle: Exclusion NG 3)
13.7 nM

Jot down apparent KD of MS2 coat protein (MS2 coat protein) of UUUGCAAGCUUAAGAUCCCACAUGAGGAUCACCCAUGUUGCUGCCGUGAGGUAGCAUUUAACUUAUGCUCGUCUUAU [JL TOV1 3.50] (Eterna round: R97, puzzle: Sensor, turn-off variant 1) .
176 nM

Output reported apparent KD of MS2 coat protein of the sequence CAAAAGGGAGGAUAUACAUGAGGAUCACCCAUGUACGGUUCACGGGUAGGUGCGUAUAGUAGAAGGCCCGCAUA [Abiace] (Eterna round: R97, puzzle: Exclusion 3) on MS2 coat protein.
83.4 nM

Report value: apparent KD of MS2 coat protein, system: MS2 coat protein, sequence: GACCCAGAUGUAAGGAUAUCGAGCUGCGUCAGGUUCGAGAAGGUACAUGAGGAUCACCCAUGUGCAAGCACUCC [BmEX4 B.18] (Eterna round: R97, puzzle: Brourd's mod of Exclusion 4)
17.4 nM

Now examine the next entry.
For MS2 coat protein, give apparent KD of MS2 coat protein of the listed sequence: GUUAUGUUAGGAUAUGCUUAUGGUGGGUGCUCAGACAUGAUGCAGAAGGGACAUGAGGAUCACCCAUGUACUGU [EX4 #19] (Eterna round: R97, puzzle: Exclusion 4)
991 nM

----------
What apparent KD of K4 kissing-loop reporter was measured for each of the following?
Test system: K4 kissing-loop RNA reporter
Test: apparent KD of K4 kissing-loop reporter; higher = weaker reporter binding
Conditions: Eterna round: R107; input ligand: none
Answers are plain numbers, in µM.

Solved entries (count: 4):
Give the measured apparent KD of K4 kissing-loop reporter for UGCUGUCAAUAAGAUACCAGUUGGACUGAGUGAUGUUCAUCCAUUAUAUCUAUUCUGCUUAACCCUUGGCAGCUUGAUGACGUUU [theeternabot_exclusion_KL_Theo_B_6]
0.18

For the sequence AGACCACAAAGUGGUCAGUGUUCGCUCCGGCGAGGACCGGUACGGCCGCCACUCGCGAGUGAUGUUCGCGAGUGGAGCGAACACA [Omei KL Tryp A Exc A v1] , report apparent KD of K4 kissing-loop reporter.
0.0886

Quote apparent KD of K4 kissing-loop reporter reported for GAAUAAUAACAUGAGUGAUGUUCAUGUAAACGAGGACCGGUACGGCCGCCACUCGUUUCUCAUGUAAGCCGUACCAAUAACAAUA [KL-XTryp-A5 #analogue] please.
0.151

Write down apparent KD of K4 kissing-loop reporter measured for item UGACUGGAUGGAAGGAGCGCUAAACUCCUAGUGAUGUUAGGGAUACGAGGCAAAGCCUCGAGGCAGGUAGGUCGCCAUCUAGUCU [FiskerMod 24 - Jieux - Same State - Arginine B]
0.124

Lab note: each sequence below needs its apparent KD of K4 kissing-loop reporter filled in.
1. AUUAUAUAGGCGGCCGCCACUAGUGAUGUUAGUGACUUUAUGAAAACAUAAAGAAUAAAAUAAUAUAGGACCGGGCCAUAAUAUU [AstrosExTryB#5]
2. CAUAGGAAACUAUGUUCCUCUCUUACUGAAGGAGCGCGUGAAAACGCAGGUAGGUCGCAGGAUUUGAGAGUGAUGUUCUCAUUAA [Ex Arginine A K4 15]

0.45
0.254

----------
Tested on: MS2 coat protein
Assay: apparent KD of MS2 coat protein; designed switch direction (-1 OFF switch, 1 ON switch): -1; higher = weaker reporter binding
Conditions: input ligand: microRNA oligo, concentration not stated
I'd appreciate it if you could supply apparent KD of MS2 coat protein values for the items below.
Numbers only, in nM.

Answer with the recorded apparent KD of MS2 coat protein for the sequence listed here: CGGACACCAGUAGGAUAUGUAGGAUAUGUUGUUGAGGAUCACCCAACAAAUUAAACGACAGAAGGACAGAAGGACUGUUCUCCU [pwkr exNG2 2xFMN 1xF5.2] (Eterna round: R96, puzzle: Exclusion NG 2)
14.5

Record apparent KD of MS2 coat protein per entry; entries follow.
1. ACAUGAGGAUCACCCAUGUACAGGGUUUAGUUUCAUCGUUUGAAGGAUAUACUCCGUUAGUUGUCGUAGAAGGUCACAGUUUGG [JR_ExcNG3_Sub007] (Eterna round: R96, puzzle: Exclusion NG 3)
2. AAAAUGGUCUAGGAUAUGACAAAUCUGAGCACGUCAGAAGGAGACACAUGAGGAUCACCCAUGUGGGUGCGAAA [Erteedza] (Eterna round: R96, puzzle: Exclusion 6)

1: 128; 2: 29.3

Hey, can you go through the list below and give me apparent KD of MS2 coat protein for every item?
1. UACAUGAGGAUCACCCAUGUUUUGUCGUGUAUGGUAUUUAUCUAGGAUAUCAUUUUAUUUGGUUAUGAGAAGGAGAAUAUUAAU [JMF's solution 92] (Eterna round: R96, puzzle: Exclusion NG 3)
2. UUGUUAUAUGUAGGAUAUGCAUGUUAUUAUUAUGCAGAAGGACAUGAGGAUCACCCAUGUGUAUUAUUAUUAUAUAUUAUAUAU [Title] (Eterna round: R96, puzzle: Exclusion NG 1)

22.7
14.1

----------
Assign apparent KD of K4 kissing-loop reporter to each entry below.
Test system: K4 kissing-loop RNA reporter
Assay: apparent KD of K4 kissing-loop reporter; higher = weaker reporter binding
Details: Eterna round: R107; input ligand: theophylline 20 uM
One number for each entry, in nM.

Solved entries:
Enter apparent KD of K4 kissing-loop reporter (test system K4 kissing-loop RNA reporter) for GAAAUCACGGAUGAUACCAGCCAGAACUCUCACAGUGAUGUUGUGCUUAAAUGAUUAGGAGGCCCUUGGCAGCAUACGCUAAUUU [theeternabot_sameState_KL_Theo_B_36]
305

Look up and report measured apparent KD of K4 kissing-loop reporter (K4 kissing-loop RNA reporter) for the following sequence: UGUCUUUUUUUGAUGUUUUUUGUAUAAUGGCAGGAUAUCGUAGAGGCGAGAAGGGCUUUUAUGCGUUAUGAGUGAUGUUUGUAGG [vevvmullin]
295

Report apparent KD of K4 kissing-loop reporter from K4 kissing-loop RNA reporter testing of GCCGUAGAUUGAAGGAGCGCUAGUAGUGAUGUUGCUUGCACUUCUUGUGUAAGAAGAACCUAGCAGGUAGGUCGCAAUCUACGGC
703

Specify the recorded apparent KD of K4 kissing-loop reporter for GGAUCCACCAGUGAUGUUGGAGAAAACUCCGAGGAUAUGACGAAAGUCAGAAGGUGGUAGACUGGACAAAGUCCGGUCGGAUCCA [FmnA 24 #SwitchBubble #K4Early] , system: K4 kissing-loop RNA reporter.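 Note: bound reporter read as fluorescence of individual clusters on recovered sequencing chips by microscopy, with normalized cluster intensities fitted with a binding model.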
162

Please report apparent KD of K4 kissing-loop reporter with K4 kissing-loop RNA reporter for item AAGUGUGUGGCGGCCGCCACUAGAAUCCAGUGAUGUUGGAGUUAUCAGAUAAAUGAUAAUCAACAUAGGACCGGGCCAUAUAGAA [Same State - Tryptophan B (Freestyle 5)] .
630

Next:
Jot down apparent KD of K4 kissing-loop reporter (K4 kissing-loop RNA reporter) of CCCUCACGAGUGAUGUUCGUAGGGUACAGUCAGGAUAUCAUGCGGUUGAGAAGGGACAGAGAAGGCGGCGACGGGUUGCUUAUCU [Atenus] .
200
